test system: ACHN renal; test: NCI tumour cell line growth inhibition, 48 h
Each entry below carries its recorded TGI.

- COMPOUND: "COc1ccc([C@H]2c3cc4c(cc3OC(O)(CO)[C@H]2C(=O)O)OCO4)c(OC)c1 (stereo not given in full) (tested in a mixture with another compound)"
  TGI: "> 100 µM"
- COMPOUND: "Nc1c(C(=O)NC23CC4CC(CC(C4)C2)C3)[n+]([O-])c2ccccc2[n+]1[O-]"
  TGI: "> 100 µM"
- COMPOUND: "O=C(NNS(=O)(=O)c1ccccc1)c1csc(NC(=S)NC2CCCCC2)n1"
  TGI: "93.6 µM"
- COMPOUND: "NC(CCc1ncc(-c2ccccc2)s1)C(=O)O (stereo not given)"
  TGI: "> 100 µM"

// below: TGI requested for another compound
The compound listed as Cn1cnc(SC2=C3C(=O)C=C4S[C@H]5C[C@]42c2c(c(O)c4c6c2=[N+]3CCC=6C=N4)N5)c1CC(N)C(=O)O (stereo not given in full) shows TGI equal to 29.5 µM

###

Each entry below carries its recorded TGI.
tested on: SF-268 CNS; test: NCI tumour cell line growth inhibition, 48 h

Some solved entries appear below for comparison.
- COMPOUND: "NCCS(=O)(=O)O"
  REPORTED RESULT: "> 100 µM"
- COMPOUND: "COc1cc(OC)c(F)c(COc2cnc(Nc3cnn(CCO)c3)nc2)c1F"
  REPORTED RESULT: "> 64.9 µM"
- COMPOUND: "CN(C)c1ccc2cc3ccc(N(C)C)cc3nc2c1"
  REPORTED RESULT: "6.26 µM"
- COMPOUND: "CC1=CC(=O)/C(=C/n2c(=S)[nH]c3cc(C)ccc32)C(=O)O1"
  REPORTED RESULT: "> 100 µM"
- COMPOUND: "COc1ccc(N2N=NN(C(C)C)/C2=C(/Cl)c2nnnn2-c2ccc(OC)cc2)cc1"
  REPORTED RESULT: "34.6 µM"

Entry COc1ccc(Cn2c3ccc([N+](=O)[O-])cc3c(=O)n2Cc2ccccn2)cc1 , SF-268 CNS data, TGI value: > 100 µM

Entry CCOC(=O)Cn1c(-c2nonc2NC(=O)c2ccccc2F)nc2ccccc21 , SF-268 CNS data, TGI value: > 100 µM

Entry Cc1ccc2nc3c(n2c1)C(=O)C(=O)c1ccccc1-3 , SF-268 CNS data, TGI value: 4.01 µM

Entry O=C1CCNC(=O)NC1 , SF-268 CNS data, TGI value: > 100 µM

Entry CO[C@]12CC(=O)C3(C(C[C@H]4CC5CC[C@H]6C[C@@H](OC(C)=O)CC[C@]6(OC(C)=O)C5C[C@@]43C)C1)C1C[C@H]3[C@@H]4CC[C@H]5C[C@@H](OC(C)=O)CC[C@]5(OC(C)=O)[C@H]4CC[C@]3(C)C12 (stereo partly drawn) , SF-268 CNS data, TGI value: > 100 µM

Entry CC1CCOc2ccc(cc2)C=Nc2ccc(cc2)-c2ccc(cc2)N=Cc2ccc(cc2)OCC1 (stereo not drawn) , SF-268 CNS data, TGI value: > 100 µM

Entry CN1C(=O)CCC1c1ccc2c(c1)oc(=O)n2C (stereo not drawn) , SF-268 CNS data, TGI value: > 100 µM

Entry CC[C@H](C)[C@H](NC(=O)NC(C)(C)C)C(=O)N(C)[C@H](C[C@@H](OC(C)=O)c1nc(C(=O)N[C@@H](Cc2ccccc2)C[C@H](C)C(=O)OC)cs1)C(C)C , SF-268 CNS data, TGI value: > 25 µM

Entry CCOc1cc2c(=O)oc3c(OC)ccc4ccc(c1OC)c2c43 , SF-268 CNS data, TGI value: > 100 µM

Entry CC(C)(C)OC(=O)n1c(Cl)c(C=O)c2ccccc21 , SF-268 CNS data, TGI value: 36.2 µM

Entry COc1ccc(/C=N\NC(=O)c2ccc3nc(-c4ccc(Cl)cc4)[nH]c3c2)cc1 , SF-268 CNS data, TGI value: 5.1 µM

Entry CS(=O)(=O)OCC1CCCCCCCCCCC12SCCCS2 (stereo not drawn) , SF-268 CNS data, TGI value: > 100 µM

Entry COc1cc2[nH]c(=O)c3cc(C)cc4c(Cl)nc(c1OC)c2c43 , SF-268 CNS data, TGI value: 84.8 µM

Entry Cn1nc2ccc3nccc(NCCNCCO)c3c2n1 , SF-268 CNS data, TGI value: > 100 µM

Entry O=C1CC(c2ccsc2)c2snc(-c3ccc(Cl)cc3)c2N1 (stereo not drawn) , SF-268 CNS data, TGI value: > 100 µM
